# reported % inhibition Apo pol 5'; entries follow
Target: P. falciparum apicoplast DNA polymerase (Pf-apPOL) (Plasmodium falciparum, UniProt Q8ILY1)
Sequence (Q8ILY1 entry or part of it): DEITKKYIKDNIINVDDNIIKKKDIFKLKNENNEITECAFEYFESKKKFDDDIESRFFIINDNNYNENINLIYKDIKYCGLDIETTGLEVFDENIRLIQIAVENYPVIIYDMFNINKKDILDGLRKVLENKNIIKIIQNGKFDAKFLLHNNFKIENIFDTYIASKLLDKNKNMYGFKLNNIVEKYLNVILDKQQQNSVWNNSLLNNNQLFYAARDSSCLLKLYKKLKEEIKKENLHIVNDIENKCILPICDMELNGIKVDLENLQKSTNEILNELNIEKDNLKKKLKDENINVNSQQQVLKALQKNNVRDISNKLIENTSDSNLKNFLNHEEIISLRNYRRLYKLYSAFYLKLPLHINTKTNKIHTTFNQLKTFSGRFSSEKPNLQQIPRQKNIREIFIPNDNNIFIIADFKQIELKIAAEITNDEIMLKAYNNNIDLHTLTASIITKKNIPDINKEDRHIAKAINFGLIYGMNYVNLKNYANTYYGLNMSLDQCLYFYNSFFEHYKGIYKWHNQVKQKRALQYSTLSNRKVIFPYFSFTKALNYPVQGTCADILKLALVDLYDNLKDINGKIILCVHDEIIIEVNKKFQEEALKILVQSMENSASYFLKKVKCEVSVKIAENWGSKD
Experiment: Fluorescence-based high-throughput DNA polymerase assay (molecular beacon), primary screen and dose-response
Format: biochemical
Details: DRC-2; 5'; concentration 5
Text: The HT assay employs a molecular beacon, a stem-loop DNA template with a Cy3 dye and the Black Hole Quencher on the 3′ and 5′ ends of the DNA, respectively. Pf-apPOL concentration is based on a calculated absorptivity of ε280 = 56750 M^−1 cm^−1. […] To identify apPOL inhibitors we utilised our previously developed high-throughput DNA polymerase assay. […] The assay accurately recapitulates the kinetic behaviour of apPOL, as measured through more conventional low-throughput gel-based assays. […]
QUANTITY: % inhibition Apo pol 5' (%)

[
  {
    "COMPOUND": "O=C(O)c1c(F)c(F)c(-c2c(F)c(F)c(C(=O)O)c(F)c2F)c(F)c1F [KU0008974]",
    "QUANTITY": "% inhibition Apo pol 5'",
    "EXPERIMENTAL_RESULT": 5
  },
  {
    "COMPOUND": "Cl.NC(CO)C(=O)NNCc1ccc(O)c(O)c1O (stereo not shown) [KU0260493]",
    "QUANTITY": "% inhibition Apo pol 5'",
    "EXPERIMENTAL_RESULT": 3.49
  },
  {
    "COMPOUND": "COc1ccc(C(=O)N2CCc3c(nc4cc(-c5ccccc5Cl)[nH]n4c3=O)C2)cn1 [Molecule 26]",
    "QUANTITY": "% inhibition Apo pol 5'",
    "EXPERIMENTAL_RESULT": 7
  },
  {
    "COMPOUND": "Cc1ccc(C)c(CSc2nc(C3CCCCC3)c(C#N)c(=O)[nH]2)c1 [Molecule 6]",
    "QUANTITY": "% inhibition Apo pol 5'",
    "EXPERIMENTAL_RESULT": 13
  },
  {
    "COMPOUND": "COc1ccc(S(=O)(=O)/N=C2\\NC(=O)/C(=C3\\C(=O)Nc4ccc([N+](=O)[O-])cc43)S2)cc1 [KU0054985]",
    "QUANTITY": "% inhibition Apo pol 5'",
    "EXPERIMENTAL_RESULT": 9
  },
  {
    "COMPOUND": "NC(=O)c1cc[n+](CC2=C(C(=O)[O-])N3C(=O)[C@@H](NC(=O)[C@@H](c4ccccc4)S(=O)(=O)[O-])[C@H]3SC2)cc1.[Na+] [Molecule 9]",
    "QUANTITY": "% inhibition Apo pol 5'",
    "EXPERIMENTAL_RESULT": 28
  },
  {
    "COMPOUND": "Cc1cccc2c(C(=O)NC(C)C)cc(N(C)C)nc12 [Molecule 47, CC(NC(=O)c1cc(nc2c1cccc2C)N(C)C)C]",
    "QUANTITY": "% inhibition Apo pol 5'",
    "EXPERIMENTAL_RESULT": 13
  },
  {
    "COMPOUND": "Cc1cccc(CC(=O)N2CCc3c(nc4cc(-c5ccccc5)[nH]n4c3=O)C2)c1 [Molecule 12]",
    "QUANTITY": "% inhibition Apo pol 5'",
    "EXPERIMENTAL_RESULT": 23
  },
  {
    "COMPOUND": "O=C(Cn1ccc2c(=O)[nH]ccc21)Nc1cccc(Cl)c1 [Molecule 23, O=C(Cn1ccc2c1cc[nH]c2=O)Nc1cccc(c1)Cl]",
    "QUANTITY": "% inhibition Apo pol 5'",
    "EXPERIMENTAL_RESULT": 28
  },
  {
    "COMPOUND": "CSC1=C(C#N)C(=C(C#N)C#N)NC(c2ccccc2)=N1 [Molecule 2, CSc1nc([nH]c(=C(C#N)C#N)c1C#N)c1ccccc1]",
    "QUANTITY": "% inhibition Apo pol 5'",
    "EXPERIMENTAL_RESULT": 21
  },
  {
    "COMPOUND": "O=C(c1c[nH]c2ncccc12)N1CCCC1 [Molecule 63, O=C(c1c[nH]c2c1cccn2)N1CCCC1]",
    "QUANTITY": "% inhibition Apo pol 5'",
    "EXPERIMENTAL_RESULT": 10
  },
  {
    "COMPOUND": "CC(=O)c1cc2c(N)c(/C(N)=N/C#N)sc2nc1C [KU0015866]",
    "QUANTITY": "% inhibition Apo pol 5'",
    "EXPERIMENTAL_RESULT": 12
  },
  {
    "COMPOUND": "CC(=O)Nc1cc(C(=O)NC(C)C)c2ccc(C)nc2c1 [KU0206312]",
    "QUANTITY": "% inhibition Apo pol 5'",
    "EXPERIMENTAL_RESULT": 15
  },
  {
    "COMPOUND": "CCCCC(=O)N1CCc2c(nc3cc(-c4ccccc4Cl)[nH]n3c2=O)C1 [Molecule 37]",
    "QUANTITY": "% inhibition Apo pol 5'",
    "EXPERIMENTAL_RESULT": 13
  },
  {
    "COMPOUND": "O=C(Nc1cccc(Cl)c1)Nc1nnc(-c2ccncc2)s1 [KU0022348]",
    "QUANTITY": "% inhibition Apo pol 5'",
    "EXPERIMENTAL_RESULT": 32
  },
  {
    "COMPOUND": "O=C(Nc1ccc2c(c1)Cc1cc(NC(=O)c3ccco3)ccc1-2)c1ccco1 [KU0038977]",
    "QUANTITY": "% inhibition Apo pol 5'",
    "EXPERIMENTAL_RESULT": 10
  }
]
